What efflux ratio at 2 h, 10 μM was measured for each of the following?
Molecular target: BCRP (Homo sapiens (Human), UniProt Q9UNQ0)
Sequence (Q9UNQ0 whole entry): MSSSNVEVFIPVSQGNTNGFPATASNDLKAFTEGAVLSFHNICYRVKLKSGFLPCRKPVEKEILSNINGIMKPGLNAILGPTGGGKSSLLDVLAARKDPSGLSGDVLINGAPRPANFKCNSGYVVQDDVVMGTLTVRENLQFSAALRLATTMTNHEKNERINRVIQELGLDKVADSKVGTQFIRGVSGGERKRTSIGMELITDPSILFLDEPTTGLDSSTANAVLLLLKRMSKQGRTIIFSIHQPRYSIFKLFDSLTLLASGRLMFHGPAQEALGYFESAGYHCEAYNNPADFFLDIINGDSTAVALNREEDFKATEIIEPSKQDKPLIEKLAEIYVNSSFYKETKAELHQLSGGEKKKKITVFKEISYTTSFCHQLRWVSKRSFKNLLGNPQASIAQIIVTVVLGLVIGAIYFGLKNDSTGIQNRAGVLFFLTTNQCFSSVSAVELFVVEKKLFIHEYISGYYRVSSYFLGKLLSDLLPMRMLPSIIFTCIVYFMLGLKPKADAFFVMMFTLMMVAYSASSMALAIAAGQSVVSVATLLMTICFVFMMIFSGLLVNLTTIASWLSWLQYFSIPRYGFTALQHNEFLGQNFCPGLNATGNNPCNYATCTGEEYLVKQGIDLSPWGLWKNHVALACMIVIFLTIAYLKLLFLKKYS
Assay: In vitro human transporter efflux, MDCKII cells expressing BCRP
Assay type: in vitro ADME
Details: pH 7.4, efflux ratio Papp BA/Papp AB
Provide a numeric answer; units are not to be included.

**Query** State the recorded efflux ratio at 2 h, 10 μM for this entry: CNC(=O)c1ccc(N2CCN(Cc3ccc4c([nH]c(=O)c5ccnn54)c3F)CC2)c(F)n1 [Example 1]
**Result** 0.95

**Query** State the recorded efflux ratio at 2 h, 10 μM for this entry: [2H]C([2H])([2H])NC(=O)c1ccc(N2CCN(Cc3ccc4c([nH]c(=O)c5ccnn54)c3F)CC2)c(F)n1 [Example 18]
**Result** 0.87
